Origin of measurements: ChEMBL document CHEMBL1201862

System: Streptococcus
EXPERIMENT_DESCRIPTION: Group A Streptococcus viability loss, dose response, counter-screen for streptokinase expression inhibitor project, luminescence, BacTiterGlo (AID 1915);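 further: potency for reduction of bacterial viability or growth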
Format: functional, organism-based
Activity calls are given as the source filed them. No stated cut-off is given here; in the data, actives have a measured EC50 and inactives only a lower limit.
QUANTITY_NAME: EC50

Below, each entry is followed by its recorded EC50 result.
COMPOUND	TARGET_OR_SYSTEM	QUANTITY_NAME	MEASURED_RESULT
c1ccc(-c2nc(N3CCCCCC3)nc(-n3ccnc3)n2)cc1	Streptococcus	EC50	7.9 µM (active)
Cc1cc(C)c(C(=O)Nc2ccc(Br)c(C(F)(F)F)c2)c(C)c1	Streptococcus	EC50	3.73 µM (active)
Oc1ccc(Br)cc1/C=N/NC(=S)NCCc1ccccc1	Streptococcus	EC50	6.21 µM (active)
Cc1nnc(SC(C(=O)Nc2cc(Cl)cc(Cl)c2)c2ccccc2)nc1O (configuration not stated)	Streptococcus	EC50	> 150 µM (not active)
Cc1ccc(NC(=O)C(OC(=O)c2ccc(NC(N)=O)cc2)c2ccccc2)cc1Cl (configuration not stated)	Streptococcus	EC50	9.31 µM (active)
CN1CCN(C(c2ccc(C(F)(F)F)cc2)c2cc(Cl)c3cccnc3c2O)CC1 (configuration not stated)	Streptococcus	EC50	6.51 µM (active)

Kindly review the next compound as well.
In: Identify measured EC50 obtained with Streptococcus for `Oc1nc(NN=C(S)NCc2ccccc2)nc2c1C1(CCCCC1)Cc1ccccc1-2` .
Out: 6.03 µM (active)
